Source: PubChem BioAssay (NCI)

test system: K-562 leukemia; assay: NCI tumour cell line growth inhibition, 48 h
The following molecules are shown together with reported TGI values.

> print(dat)
                                   molecule  endpoint.name  endpoint.value
1  O=c1ccn(CC2(CO)CC(Cc3ccccc3)C2)c(=O)[nH]1 (stereo not drawn)            TGI        > 100 µM
2  CCCOC(=O)N1CCN(/[N+]([O-])=N/Oc2ccc([N+](=O)[O-])cc2[N+](=O)[O-])CC1            TGI        > 100 µM
3  COc1ccc(/C=C2\CCCC3=C2NC(N)=NC3c2ccc(OC)c(OC)c2)cc1OC (stereo not drawn)            TGI        > 100 µM
4  CC1(O)CC(=O)c2c(cc3ccc(-c4c5c(c(O)c6c(O)cccc46)C(=O)CC(C)(O)C5)c(O)c3c2O)C1 (stereo not drawn)            TGI         11.9 µM

For `C1=C2/CC[C@H](Sc3ccccc3)[C@H]2C2(CCCCC/1)OCCO2` on K-562 leukemia, measured TGI was > 100 µM

For `CC1(C)[C@H]2CC[C@]1(C)[C@H](OC(=O)NNC(=O)O[C@@H]1C[C@@H]3CC[C@@]1(C)C3(C)C)C2` on K-562 leukemia, measured TGI was 17 µM

For `Cc1cc(Cl)ccc1NC(=O)CC/C(CC(=O)C(C)C)=N\NC(=O)C[n+]1ccccc1` on K-562 leukemia, measured TGI was > 100 µM

For COc1ccc(C(C#N)Cc2cc(OC)c(OC)c(OC)c2)cc1 (stereo not drawn) on K-562 leukemia, measured TGI was > 100 µM

For `O=C(NC[C@H](O)CO)c1ccncc1Nc1ccc(I)cc1F` on K-562 leukemia, measured TGI was > 100 µM

For `NCCCN(CCCN)CCN(CCN(CCCN)CCCN)CCN(CCCN)CCCN` on K-562 leukemia, measured TGI was > 100 µM

For CCOc1cc(C2CC(c3ccc(NS(=O)(=O)c4cc([N+](=O)[O-])ccc4C)cc3)=NN2c2ccc([N+](=O)[O-])cc2[N+](=O)[O-])ccc1O (stereo not drawn) on K-562 leukemia, measured TGI was > 100 µM
